Test: in vitro
Details: chinese hamster, CHO-K1 cells
Description: Growth inhibition of CHOK1 cells after 48 hrs by MTT assay
Entries and their GI50 at 48 h
measured property: GI50 at 48 h (µM)

[[record]]
smiles_entry = "S=C(Nc1cccc(Cl)c1)Nc1ccc2ncnc(Nc3cccc(Br)c3)c2c1"
val = 25.7

[[record]]
smiles_entry = "Fc1ccc(NC(=S)Nc2ccc3ncnc(Nc4cccc(Br)c4)c3c2)cc1Cl"
val = 52.1


----------
Molecular target: UniProt:P00533
Sequence (P00533 whole entry): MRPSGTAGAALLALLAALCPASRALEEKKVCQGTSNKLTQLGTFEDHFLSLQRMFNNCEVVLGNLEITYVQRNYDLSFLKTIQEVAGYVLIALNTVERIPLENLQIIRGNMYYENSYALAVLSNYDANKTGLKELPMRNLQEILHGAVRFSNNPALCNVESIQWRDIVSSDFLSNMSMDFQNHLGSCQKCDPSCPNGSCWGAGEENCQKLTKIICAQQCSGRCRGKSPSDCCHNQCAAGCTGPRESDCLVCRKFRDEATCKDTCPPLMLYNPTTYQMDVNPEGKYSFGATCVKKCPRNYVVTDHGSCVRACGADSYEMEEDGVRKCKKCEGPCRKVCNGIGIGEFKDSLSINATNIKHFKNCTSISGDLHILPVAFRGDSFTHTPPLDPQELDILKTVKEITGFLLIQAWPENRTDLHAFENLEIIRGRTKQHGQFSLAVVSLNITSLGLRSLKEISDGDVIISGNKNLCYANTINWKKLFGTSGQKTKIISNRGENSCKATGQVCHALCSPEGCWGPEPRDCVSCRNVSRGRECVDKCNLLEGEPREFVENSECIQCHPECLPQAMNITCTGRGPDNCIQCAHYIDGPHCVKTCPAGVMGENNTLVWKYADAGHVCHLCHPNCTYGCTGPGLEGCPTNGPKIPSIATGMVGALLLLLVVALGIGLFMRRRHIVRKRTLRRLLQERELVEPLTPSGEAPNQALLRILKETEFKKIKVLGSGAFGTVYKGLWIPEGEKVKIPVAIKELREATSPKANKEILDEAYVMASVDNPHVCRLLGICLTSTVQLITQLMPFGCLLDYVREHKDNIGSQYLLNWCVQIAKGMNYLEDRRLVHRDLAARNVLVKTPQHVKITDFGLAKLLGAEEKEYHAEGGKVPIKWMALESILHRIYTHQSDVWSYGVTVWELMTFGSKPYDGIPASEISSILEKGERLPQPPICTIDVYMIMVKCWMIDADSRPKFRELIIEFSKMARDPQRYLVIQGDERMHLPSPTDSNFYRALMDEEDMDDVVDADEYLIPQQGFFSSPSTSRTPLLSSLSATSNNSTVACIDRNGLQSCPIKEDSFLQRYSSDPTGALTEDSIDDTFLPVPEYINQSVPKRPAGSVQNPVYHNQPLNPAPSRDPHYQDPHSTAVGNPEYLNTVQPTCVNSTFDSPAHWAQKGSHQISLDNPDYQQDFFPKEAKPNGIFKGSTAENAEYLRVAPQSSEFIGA
Conditions: at 150 nM
Each entry gets f if its inhibition stays under 70%, and t if its inhibition is 70% or above.

[[record]]
smiles_entry = "S=C(NCc1ccccc1)Nc1ccc2ncnc(Nc3ccc(Br)cc3)c2c1"
answer_label = "f"

[[record]]
smiles_entry = "S=C(Nc1cncc(Cl)c1)Nc1ccc2ncnc(Nc3cccc(Cl)c3)c2c1"
answer_label = "t"

[[record]]
smiles_entry = "O=C(NCc1ccccc1)Nc1ccc2ncnc(Nc3cccc(Br)c3)c2c1"
answer_label = "t"

[[record]]
smiles_entry = "FC(F)(F)c1cc(NC(=S)Nc2ccc3ncnc(Nc4cccc(Br)c4)c3c2)ccc1Cl"
answer_label = "f"


FYI, the data here is from ChEMBL document CHEMBL4007489.
